Ref: the supplement of paper PMC10567573

B1: TRIM35 (parent)
chain: PTCPVCKDRASPADLRTNHTLNNL

Variants of: B1
Assay: protein stability index of a GFP-peptide fusion (GPS, HEK-293T) (PSI 1-6); higher = more stable;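 further: lentivirally expressed fusions sorted by FACS into six bins by GFP to DsRed ratio, PSI derived from sequencing read proportions per bin multiplied by bin number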
Details: c terminus: a fixed tail appended
property: protein stability index
Give the figure by itself; no unit, no explanation.

Below, each entry is followed by its recorded protein stability index result.
N18A; 2.67
P12F; 2.52
H19V; 3.04

In: Consider the variant shown here: L15A What is its recorded protein stability index?
Out: 3.35

In: Same question, H19Q this time
Out: 3.28

In: // next record C6H
Out: 4.11

In: Consider next the variant T17G in the same way.
Out: 3.18

In: Follow-up entry: T20S
Out: 2.7

In: Same thing, different variant: N23M
Out: 2.47

In: // repeat for H19W and report
Out: 2.86

In: Further, for V5A ?
Out: 3.33

In: How about A13R ?
Out: 3.2
